System: MDA-MB-435
Experiment: NCI tumour cell line growth inhibition, 48 h
Activity calls are given as the source filed them. Rule as the data show it: active = GI50 up to about 1.1 µM and inactive = higher.
Outcome codes: 1.0 (active), 0.0 (inactive)

INSERT INTO assay_data (molecule_smiles, label_value) VALUES
  ('COc1cc(S(=O)(=O)Nc2ccc(-c3csc(/N=C\c4ccccc4O)n3)cc2)ccc1Cl', 0.0),
  ('O=S1(=O)OCc2ccccc21', 0.0),
  ('CC(=N/NC(=S)N1CCCCCC1)/C(C)=N\NC(=S)N1CCCCCC1', 0.0),
  ('COC(=O)[C@H](Cc1c[nH]c2ccccc12)NP(=O)(O)OC[C@H]1O[C@@H](n2cc(C)c(=O)[nH]c2=O)C[C@@H]1N=[N+]=[N-]', 0.0),
  ('CCN1C=C/C(=C\C=C\c2cc[n+](CC)c3ccccc23)c2ccccc21', 0.0),
  ('Cc1ccc(S[C@@](C=O)(NC(=O)OCc2ccccc2)C(F)(F)F)cc1', 0.0),
  ('CNc1ncnc(Sc2nc(N)nc3[nH]cnc23)c1[N+](=O)[O-]', 1.0);
